Protocol details: In vivo PK study, single subcutaneous dose in CD2F1 mice
Condition details: male, CD2F1, mouse, sc, 200 mg/kg

[
  {
    "Compound structure": "CC(C)=CCC/C(C)=C/CC/C(C)=C/CC[C@]1(C)CCc2cc(O)cc(C)c2O1",
    "Tmax": "~1 h"
  }
]

----------
Protocol details: In vivo PK study, single subcutaneous dose in CD2F1 mice
Condition details: male, CD2F1, mouse, sc, 200 mg/kg

[
  {
    "Compound structure": "CC(C)=CCC/C(C)=C/CC/C(C)=C/CC[C@]1(C)CCc2cc(O)cc(C)c2O1",
    "Unit spec": "h",
    "Tmax at 24 h": 1
  }
]
